- TESTED SYSTEM: T1, NPR-C expressed in stable 293 cell lines (membranes) (human, UniProt P17342)
- T1 sequence: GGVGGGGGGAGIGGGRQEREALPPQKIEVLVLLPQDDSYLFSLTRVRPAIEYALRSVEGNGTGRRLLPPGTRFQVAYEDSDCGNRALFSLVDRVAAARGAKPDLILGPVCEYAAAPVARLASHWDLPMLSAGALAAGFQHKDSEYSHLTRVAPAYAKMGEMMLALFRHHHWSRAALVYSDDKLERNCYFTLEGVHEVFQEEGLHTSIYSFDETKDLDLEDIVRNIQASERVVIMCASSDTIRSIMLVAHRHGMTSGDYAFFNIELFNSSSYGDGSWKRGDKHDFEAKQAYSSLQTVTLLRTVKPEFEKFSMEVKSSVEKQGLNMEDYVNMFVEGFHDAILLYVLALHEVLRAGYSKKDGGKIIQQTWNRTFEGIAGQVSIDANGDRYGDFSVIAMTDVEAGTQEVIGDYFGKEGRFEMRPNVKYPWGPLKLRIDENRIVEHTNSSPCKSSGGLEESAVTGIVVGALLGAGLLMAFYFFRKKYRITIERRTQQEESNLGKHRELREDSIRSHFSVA
- ASSAY SUMMARY: competition with 30 pM 125I-rat ANP on membranes of 293 cells expressing NPR-C; unit not given
Attribute: affinity (NPR-C)
MEASURED PROPERTY: affinity (NPR-C)

# BINDER, ENDPOINT RESULT
rows = [
    ("SLRRSSCFGGRIDRIRAQSGLGCNSFRY [hANP Gly16Arg (SEQ ID NO: 52)]", 10600),
    ("SPKMVQGSGCFGGRMDRIRSSSGLGCKVLRRH [hBNP Arg13Gly, Lys14Arg, Ser19Arg (SEQ ID NO:49)]", 28400),
    ("SLRRSSCFGGRIDRIGAQSFWRCNSFRY [hANP Net12Ile, Gly20Phe, Leu21Trp, Gly22Arg (SEQ ID NO:50)]", 295),
    ("SLRRSSCFGGRIDRIGAQSGLGCNSFRY [hANP (SEQ ID NO: 51)]", 198),
]
